assay.name: inhibitors of TNFa-induced NFkB p65 translocation, primary screen, imaging, HUVEC, MLSMR starter and 10KST1 sets (AID 438);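 note: compound added about 3h40 before a 20 min TNFalpha stimulation; signal is the nuclear over cytoplasmic p65 intensity ratio per well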
test.settings: HUVEC TNFa-induced p65 nuclear translocation; at 2 µM, hits give high values, 0% TNFa-plus-vehicle, 100% no-TNFa wells
measured.metric: inhibition (%)
Numbers only, in %.

A selection of reference data follows.
>>> observed_result("CCCSc1nc(C)c(CC(=O)O)c(=O)[nH]1")
-7.9
>>> observed_result("CSc1ccccc1NC(=O)c1c(Br)cnn1C")
-4.3
>>> observed_result("COc1ccc(-c2oc3ncn4nc(COc5ccccc5)nc4c3c2-c2ccc(OC)cc2)cc1")
-7.9
>>> observed_result("Cc1c(/C(O)=C2\\C(=O)C(=O)N(CCN(C)C)C2c2cccnc2)cnn1-c1ccccc1 (stereo unspecified)")
-1.7

List reported inhibition for each of these molecules:
1. Cc1cc2c(c(=O)n1CC1CCCO1)C(c1ccc3c(c1)OCO3)C(C#N)=C(N)O2 (stereo unspecified)
2. CC(=O)Oc1ccccc1C1OC(=O)c2ccccc2N1C(C)=O (stereo unspecified)
3. CCOC(=O)c1c(SC)nc(SC)c2c1CCC2
4. O=S(=O)(c1ccc2ccccc2c1)N(CC(O)CN1CCOCC1)c1ccccc1 (stereo unspecified)

RESULT:
1. -3.9
2. -26.4
3. -8.1
4. -8.7

###

assay.name: PubChem AID 1714;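 note: raw slope of fluorescence over initial fluorescence between 10 and 20 s after thallium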
test.settings: HEK293-KCC2 + bumetanide/ouabain, thallium flux FluoZin2; at 10 µM; hits give high values
The other results are listed elsewhere or left out. Records with an inconclusive call do not appear.
Assign class by normalized thallium flux: not lower than 0.03 means YES; lower than 0.03 means NO.

# example entries with known answers
>>> assigned_class("CSc1ncnc2sc(C)c(C)c12")
"NO"
>>> assigned_class("COc1cc(OC)cc(C(=O)NCCSCc2ccco2)c1")
"NO"
>>> assigned_class("CCC(=O)NC(=Nc1nc2ccccc2s1)NC(=O)CC")
"YES"
>>> assigned_class("Cc1ccc(C2CC(=O)NC(SCC(=O)OCc3ccccc3)=C2C#N)o1 (configuration not stated)")
"NO"
>>> assigned_class("CCCCC(CC)CNC(=O)C(=O)C1C(=O)Nc2ccccc21 (configuration not stated)")
"YES"
>>> assigned_class("Cc1ccc(/C=N/NC(=S)NC2CCCCC2)o1")
"NO"
>>> assigned_class("CCc1c(SCCC(=O)O)nc2ccccc2c1C")
"NO"
>>> assigned_class("Cc1[nH]n(-c2ccccc2)c(=O)c1N=Nc1ccccc1C(=O)N1CCCCC1")
"YES"

QUERY: For this molecule, is measured normalized thallium flux 0.03 or higher? Cc1ccc(OCc2n[nH]c(=S)n2-c2ccc(C)cc2)cc1
RESULT: YES

QUERY: Moving on to CC(=O)NNc1cc(=O)c2c(=O)n(C)c(=O)n(C)c2[nH]1
RESULT: NO

QUERY: Same question for O=C(Oc1c(-c2ccco2)oc2ccccc2c1=O)c1cccnc1 please.
RESULT: YES

QUERY: Now consider S=c1[nH]nc(Nc2ccccc2)s1 and answer again.
RESULT: NO

###

assay.name: inhibitors of mutant huntingtin aggregation, primary screen, imaging, exon1htt(103Q)mCFP cells, high-content imaging (AID 483);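 note: compound exposure lasted 3 days before fixation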
test.settings: exon1htt(103Q)mCFP cell line, aggregate imaging, at 2 µM; hits give high values
The source made the active and inactive calls.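 The calls were made as follows: active = visual image review flags a hit and inhibition of aggregation exceeds 20%; inconclusive = visual hit but inhibition at or below 20%; inactive = no hit on visual image review.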
I'd be grateful if you could share measured inhibition of aggregation for these entries.

Worked examples, 6 compounds total:
>>> observed_result("Cc1cc(NCC2CCCO2)n2c(nc3ccccc32)c1C#N (centres undefined)")
"16.3% (inactive)"
>>> observed_result("O=C(Nc1ccccc1C(=O)NCCCn1ccnc1)c1ccccc1")
"9.5% (inactive)"
>>> observed_result("CCOC(=O)CC(C#N)c1cn(C)c2ccccc12 (centres undefined)")
"2.2% (inactive)"
>>> observed_result("Cn1ncc2c(Nc3ccccc3Br)ncnc21")
"21.2% (inactive)"
>>> observed_result("N[C@@H](Cc1ccc(O)c(I)c1)C(=O)O")
"1.7% (inactive)"
>>> observed_result("COc1ccccc1-n1c(=O)c2c3c(sc2n2c(SC(C)C)nnc12)CCC3")
"31.3% (active)"

Hello, I would appreciate it if you could give inhibition of aggregation for each entry below.
1. COc1cccc(Cn2c(Oc3ccccc3)nc3c2c(=O)n(C)c(=O)n3C)c1
2. CCOC(=O)c1c(-c2cccs2)csc1NC(=O)CCCC(=O)O
3. Cc1ccc(-n2c(N)c(C(N)=O)sc2=S)cc1
4. CCCN(CCC)S(=O)(=O)c1ccc(C(=O)O)cc1
5. Cc1cc(/C=N\O)c(C)n1-c1ccncc1
6. NS(=O)(=O)c1cc2c(cc1Cl)NC(C(Cl)Cl)NS2(=O)=O (centres undefined)

RESULT:
17.7% (inactive)
-5% (inactive)
-1.4% (inactive)
6.1% (inactive)
7.2% (inactive)
4.9% (inactive)

###

Consider the following compounds; for each one, report its inhibition.
assay.name: inhibitors of E-selectin induction by TNFa, primary screen, imaging, HUVEC, immunofluorescence, MLSMR starter and 10KST1 sets (AID 487);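 note: signal is fraction of cell area covered by stained E-selectin grains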
test.settings: HUVEC TNFalpha-induced E-selectin immunofluorescence imaging, at 2 µM; hits give high values
Give bare numbers, in %.

Reference set (10 entries):
>>> observed_result("CNCCCC1c2ccccc2C=Cc2ccccc21")
-90.5
>>> observed_result("O=C(NCCOCCOCCNC(=O)c1cccnc1)c1cccnc1")
-165
>>> observed_result("O=S1(=O)C[C@@H](N2CCOCC2)[C@H](N2CCOCC2)C1")
-110
>>> observed_result("C/C(=C\\C(=O)O)CC(=O)O")
-133
>>> observed_result("COc1cc(C2C(C#N)=C(N)Oc3cc(C)n(CCN4CCOCC4)c(=O)c32)cc(OC)c1OC (centres undefined)")
-116
>>> observed_result("Cn1ccnc1SCCC#N")
-10.9
>>> observed_result("CC(C)(C)c1ccc(C(O)CCCN2CCC(C(O)(c3ccccc3)c3ccccc3)CC2)cc1 (centres undefined)")
-51.1
>>> observed_result("Clc1cccc(-c2nn3c(COc4ccccc4)nnc3s2)c1")
-53
>>> observed_result("N#Cc1nc(-c2ccc(Cl)cc2)oc1N1CCCCC1")
-41.2
>>> observed_result("CCC12CN3CC(CC)(CN(C1)C3c1c(O)ccc3ccccc13)C2=O (centres undefined)")
-44.2

Batch request: inhibition per item, same order as input.
1. CCOc1cccc(-c2nnc3sc(-c4ccc(C)cc4)nn23)c1
2. O=S(=O)(c1ccccc1)N1CCC(N2CCCCCC2)CC1
3. COC(=O)c1ccc(-c2sc3nc(N4CCOCC4)c4c(c3c2N)CC(C)(C)OC4)o1
4. COc1ccc(C(=O)c2sc(NC(C)C)nc2N)cc1OC
5. CCOC(=O)c1c(CNCCN(CC)CC)n(C)c2cc(Br)c(OC)cc12
6. CCCCOc1ccc(CC(=O)NO)cc1
7. CCCCOC(=O)Nc1ccc(S(=O)(=O)Nc2nc(C)cc(C)n2)cc1

RESULT:
1: -113; 2: -30.4; 3: -62.4; 4: -16.7; 5: -25; 6: -41.8; 7: -17.4

Give one value of inhibition per listed compound.
1. COC(=O)c1sccc1NC(=O)c1c(C)cc(=O)oc1C
2. CCOC(=O)C1/C(=N\O)CC(C)(O)C(C(=O)OCC)C1c1ccc(OC)c(OC)c1 (centres undefined)
3. CCOC(=O)c1nc2nc(C)c(Cl)c(=O)n2[nH]1
4. CCOc1ccc2c(C)nc(NC3=NC(C)(C)C=C(C)N3)nc2c1

RESULT:
[-142, -36, -83.9, 46.4]

###

I'd be grateful if you could share measured inhibition for these entries.
assay.name: inhibitors of Chlamydomonas gravitaxis, primary screen, whole organism, Chlamydomonas reinhardtii, WT vs cilia-less mutant, absorbance, 96-well (AID 463189);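 note: 0% = wild type cc124 cells in DMSO and 100% = ciliumless bld1 mutant cells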
test.settings: OD600 absorbance, 2 days, at 10 µM, hits give high values
One number for each entry, in %.

Here are 8 compounds together with their reported answers.
>>> observed_result("CC1(C)Nc2ccc(O)cc2-c2c1ssc2=S")
-1.08
>>> observed_result("CC(=O)c1c(C(C)=O)c(C)n(NC(=O)c2ccncc2)c1C")
8.61
>>> observed_result("COC(=O)c1ccc(-c2sc3nc(N4CCOCC4)c4c(c3c2N)CC(C)(C)OC4)o1")
-4.84
>>> observed_result("COC(=O)c1cc2c(=O)n3cccc(C)c3nc2n(Cc2cccnc2)c1=N")
32.4
>>> observed_result("CCC1(C)Cc2c(sc3c2c(=O)n(C)c2nnc(SCc4ccc5c(c4)OCO5)n32)CO1 (centres undefined)")
46.1
>>> observed_result("CC1(C)Cc2c(c(-c3ccccc3)nc3[nH][nH]c(=O)c23)CO1")
21
>>> observed_result("C1CCCN(CCCCN2CCCCCC2)CC1")
-11.5
>>> observed_result("COC(=O)c1ccccc1NC(=O)CSc1nnc(-c2ccncc2)o1")
4.81

Record inhibition per entry; entries follow.
1. COC(=O)CN(c1cc(OC)ccc1OC)S(=O)(=O)c1ccc(OC)c(OC)c1
2. CCOC(=O)c1[nH]c2ccc(OC)cc2c1NC(=O)CCN1CCN(Cc2ccccc2)CC1
3. CCOc1cccc(-c2nn3c(-c4ccco4)nnc3s2)c1
4. NNC(=O)c1ccncc1
5. Cc1cccc(C)c1NC(=O)C1CCCCN1C (centres undefined)
6. Cc1noc(NS(=O)(=O)c2ccc(NC(=O)COc3ccccc3)cc2)c1C
7. Cc1noc(NS(=O)(=O)c2ccc(N)cc2)c1C
8. Cc1cc(Cl)ccc1OCC(=O)OC(C)C(=O)N(C)C (centres undefined)

RESULT:
1. -0.193
2. 16.3
3. 17.2
4. 2.05
5. 3.16
6. 4.64
7. -6.69
8. 7.97

Can you give me inhibition for all of these, one by one?
1. CC(=O)Nc1cnc2ccccc2n1
2. Clc1ccc2[nH]c3c(NCCCN4CCOCC4)ncnc3c2c1
3. CCCCC(=O)Nc1c(O)c2ccccc2[nH]c1=O
4. CCOC(=O)c1cc(C)n(-c2ccc(OC)c(OC)c2)c1C
5. Cc1nccn1-c1cc(C(C)C)c(C#N)c2nc3ccccc3n12

RESULT:
1: -0.95; 2: -7.19; 3: -4.89; 4: -0.885; 5: 23
